# assay target: Heat shock factor protein 1 (Mus musculus)
# Sequence (P38532 whole entry): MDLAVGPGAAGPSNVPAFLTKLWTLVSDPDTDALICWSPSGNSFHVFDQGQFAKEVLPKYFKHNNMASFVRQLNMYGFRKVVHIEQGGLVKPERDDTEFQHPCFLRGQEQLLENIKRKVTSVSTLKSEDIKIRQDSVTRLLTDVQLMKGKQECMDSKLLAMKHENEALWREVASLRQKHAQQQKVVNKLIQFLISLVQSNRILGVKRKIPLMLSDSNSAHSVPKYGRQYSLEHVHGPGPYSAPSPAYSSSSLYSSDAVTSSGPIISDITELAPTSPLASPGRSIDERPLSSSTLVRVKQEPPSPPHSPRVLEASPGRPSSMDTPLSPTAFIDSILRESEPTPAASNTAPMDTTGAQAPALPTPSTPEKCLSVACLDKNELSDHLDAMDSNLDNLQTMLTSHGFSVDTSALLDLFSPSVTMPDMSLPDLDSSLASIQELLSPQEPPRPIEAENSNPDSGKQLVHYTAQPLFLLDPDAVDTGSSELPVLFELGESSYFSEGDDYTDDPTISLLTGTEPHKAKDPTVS
# protocol text: enhancement of HSF1-driven luciferase signal – cell-based, NIH3T3, luminescence, dose retest, confirmation (AID 435004);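 further: stress induced by proteasome inhibitor MG132 added 30 min after compound; luciferase reporter driven by HSF1 response element in NIH3T3 cells; actives raise luminescence as potentiators of the MG132 stress response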
# Type: functional
Active and inactive are the calls of the source.
Outcome codes: Y (active), N (inactive)

* C/C(Cl)=C/Cc1c(C)nc2ccc(C)cc2c1O | N
* COc1ccc(CNC(=O)Oc2ccccc2)cc1Cl | Y
* COc1cc2c(cc1OC)C(CCc1ccccc1)=NCC2 | N
* CCOC(=O)c1c[nH]nc1C(F)(F)F | N
* O=C(NCc1ccccc1)c1c(Cl)nc(Cl)c(Cl)c1Cl | Y
* CCc1n[nH]c2c1C1(CCN(C(=O)OCc3ccccc3)CC1)C(C#N)=C(N)O2 | Y
* S=C(Nc1cccc(Cl)c1)N(CCCN1CCCC1)Cc1cccn1Cc1ccc(Cl)cc1 | N
* COc1ccc(CNCC(O)COc2ccc(C(C)(C)c3ccccc3)cc2)cc1 (stereo unspecified) | N
* CCCCOCCCN1CC(=O)N2[C@@H](Cc3c([nH]c4ccccc34)C2(C)C)C1=O | N
* Cc1ccc2cccnc2c1NC(=S)NC(=O)c1ccccc1 | N
* O=C(NCCc1cccc(Cl)c1)c1cc2ccccc2oc1=O | N
* CSCC[C@H](NC(=O)N1CCn2c1nc1ccccc12)C(=O)NCc1ccc(F)cc1 | N
* COCCNC(=O)Cn1cnc2c1c(=O)n(C)c(=O)n2C | N
* COc1cc2c(cc1/C=C/[N+](=O)[O-])OCO2 | Y
* NC(=O)Cc1ccc2c(c1)[nH]c1ccccc12 | N
* COc1ccc(/N=C2\S/C(=C\c3ccc(Cl)c([N+](=O)[O-])c3)C(=O)N2CCN(C)C)cc1 | Y

----------
# protocol text: viability of uninfected HEp-2 cells – cell-based, HTS, cytotoxicity control for RSV inhibitor project, dose response (AID 2410)
# Format: functional
# test conditions: human respiratory syncytial virus
Calls of active or inactive are those of the source.
Here, each record is paired with measured CC50 data.
test readout: CC50

- COC(=O)N/N=C/c1ccc(-c2cccc(Cl)c2)o1: 28.3 µM (active)
- COc1ccccc1-c1cc2nc(C)cc(C)n2n1: 22.5 µM (active)
- O=S(=O)(c1ccc2c(c1)OCCO2)N1CCC(c2nc(O)c3nnn(Cc4c(F)cccc4Cl)c3n2)CC1: 34.2 µM (active)
- Cc1csc2c(N3CCN(C(=O)Nc4ccc(Cl)c(Cl)c4)CC3)ncnc12: 43.7 µM (active)
- O=C(Nc1cccc(-c2cccc(Cl)c2)c1)C1CCN(Cc2ccc(CO)o2)CC1: 12.7 µM (active)
- CCn1c(C)c(C)c2cc(C(=O)Nc3cccc(Cl)c3)ccc21: 30.4 µM (active)

----------
# assay target: Leucine aminopeptidase (Plasmodium falciparum 3D7)
# Sequence (Q8IL11 whole entry): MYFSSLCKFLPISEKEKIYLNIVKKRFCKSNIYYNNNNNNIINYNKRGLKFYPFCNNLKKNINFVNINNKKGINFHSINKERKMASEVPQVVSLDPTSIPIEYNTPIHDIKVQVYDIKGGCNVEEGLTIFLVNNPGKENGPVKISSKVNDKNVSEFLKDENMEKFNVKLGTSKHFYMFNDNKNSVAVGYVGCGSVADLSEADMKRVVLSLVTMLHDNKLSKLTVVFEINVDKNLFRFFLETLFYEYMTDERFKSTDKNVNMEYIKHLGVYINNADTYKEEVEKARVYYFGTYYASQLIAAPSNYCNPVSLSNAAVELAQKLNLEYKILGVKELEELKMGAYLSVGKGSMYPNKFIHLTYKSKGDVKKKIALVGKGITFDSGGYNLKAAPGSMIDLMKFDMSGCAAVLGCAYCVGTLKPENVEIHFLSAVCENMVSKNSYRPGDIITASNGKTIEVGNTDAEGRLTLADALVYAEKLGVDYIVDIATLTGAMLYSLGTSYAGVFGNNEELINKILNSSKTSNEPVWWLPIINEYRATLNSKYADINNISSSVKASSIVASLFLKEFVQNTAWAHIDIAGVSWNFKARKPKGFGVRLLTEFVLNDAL
# protocol text: P. falciparum M17LAP inhibitors, primary screen, biochemical, fluorogenic H-Leu-NHMec substrate, 1536-well (AID 1619)
# Assay type: functional
Active and inactive are the calls of the source.
test readout: IC50

- CC1=NNC(=O)C1CCC(=O)N/N=C(\C)c1ccccc1 (stereo not given): 36.6 µM (active)
- O=C(CSc1nnc(-c2ccccc2)[nH]1)c1ccc(O)c(O)c1: 8.31 µM (active)
- CC(C)c1c(O)nc(SCC(=O)Nc2ccc3c(c2)CCC3)[nH]c1=O: 8.08 µM (active)
- Cc1cc(C(=O)CSc2nc[nH]n2)c(C)n1-c1cccc(S(=O)(=O)N2CCOCC2)c1: 22.8 µM (active)
- O=C(O)C1CC=CCC1C(=O)NCCc1cccc(Cl)c1 (stereo not given): 11.8 µM (active)
- CCOC(=O)c1c(NC(=O)C2C3C=CC(CC3)C2C(=O)O)sc(C)c1CC (stereo not given): 13.2 µM (active)
- O=C1N=C(NS(=O)(=O)Cc2ccccc2)S/C1=C1\C(=O)Nc2ccccc21: 26.7 µM (active)
- COc1ccc(CC(CC(=O)O)C(=O)Nc2ccc(OC)cc2)cc1 (stereo not given): 8.96 µM (active)
- O=C(O)CCN1C(=O)/C(=C/c2cn(-c3ccccc3)nc2-c2cccs2)SC1=S: 3.05 µM (active)
- CCCN1C=CC(=C/C=C(\C#N)C(=O)OCC)C=C1: 91.5 µM (active)

----------
# assay target: Voltage-dependent T-type calcium channel subunit alpha-1H (Homo sapiens, UniProt O95180);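 further: channel activity triggered by adding a high calcium stimulation buffer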
# Sequence (O95180 whole entry): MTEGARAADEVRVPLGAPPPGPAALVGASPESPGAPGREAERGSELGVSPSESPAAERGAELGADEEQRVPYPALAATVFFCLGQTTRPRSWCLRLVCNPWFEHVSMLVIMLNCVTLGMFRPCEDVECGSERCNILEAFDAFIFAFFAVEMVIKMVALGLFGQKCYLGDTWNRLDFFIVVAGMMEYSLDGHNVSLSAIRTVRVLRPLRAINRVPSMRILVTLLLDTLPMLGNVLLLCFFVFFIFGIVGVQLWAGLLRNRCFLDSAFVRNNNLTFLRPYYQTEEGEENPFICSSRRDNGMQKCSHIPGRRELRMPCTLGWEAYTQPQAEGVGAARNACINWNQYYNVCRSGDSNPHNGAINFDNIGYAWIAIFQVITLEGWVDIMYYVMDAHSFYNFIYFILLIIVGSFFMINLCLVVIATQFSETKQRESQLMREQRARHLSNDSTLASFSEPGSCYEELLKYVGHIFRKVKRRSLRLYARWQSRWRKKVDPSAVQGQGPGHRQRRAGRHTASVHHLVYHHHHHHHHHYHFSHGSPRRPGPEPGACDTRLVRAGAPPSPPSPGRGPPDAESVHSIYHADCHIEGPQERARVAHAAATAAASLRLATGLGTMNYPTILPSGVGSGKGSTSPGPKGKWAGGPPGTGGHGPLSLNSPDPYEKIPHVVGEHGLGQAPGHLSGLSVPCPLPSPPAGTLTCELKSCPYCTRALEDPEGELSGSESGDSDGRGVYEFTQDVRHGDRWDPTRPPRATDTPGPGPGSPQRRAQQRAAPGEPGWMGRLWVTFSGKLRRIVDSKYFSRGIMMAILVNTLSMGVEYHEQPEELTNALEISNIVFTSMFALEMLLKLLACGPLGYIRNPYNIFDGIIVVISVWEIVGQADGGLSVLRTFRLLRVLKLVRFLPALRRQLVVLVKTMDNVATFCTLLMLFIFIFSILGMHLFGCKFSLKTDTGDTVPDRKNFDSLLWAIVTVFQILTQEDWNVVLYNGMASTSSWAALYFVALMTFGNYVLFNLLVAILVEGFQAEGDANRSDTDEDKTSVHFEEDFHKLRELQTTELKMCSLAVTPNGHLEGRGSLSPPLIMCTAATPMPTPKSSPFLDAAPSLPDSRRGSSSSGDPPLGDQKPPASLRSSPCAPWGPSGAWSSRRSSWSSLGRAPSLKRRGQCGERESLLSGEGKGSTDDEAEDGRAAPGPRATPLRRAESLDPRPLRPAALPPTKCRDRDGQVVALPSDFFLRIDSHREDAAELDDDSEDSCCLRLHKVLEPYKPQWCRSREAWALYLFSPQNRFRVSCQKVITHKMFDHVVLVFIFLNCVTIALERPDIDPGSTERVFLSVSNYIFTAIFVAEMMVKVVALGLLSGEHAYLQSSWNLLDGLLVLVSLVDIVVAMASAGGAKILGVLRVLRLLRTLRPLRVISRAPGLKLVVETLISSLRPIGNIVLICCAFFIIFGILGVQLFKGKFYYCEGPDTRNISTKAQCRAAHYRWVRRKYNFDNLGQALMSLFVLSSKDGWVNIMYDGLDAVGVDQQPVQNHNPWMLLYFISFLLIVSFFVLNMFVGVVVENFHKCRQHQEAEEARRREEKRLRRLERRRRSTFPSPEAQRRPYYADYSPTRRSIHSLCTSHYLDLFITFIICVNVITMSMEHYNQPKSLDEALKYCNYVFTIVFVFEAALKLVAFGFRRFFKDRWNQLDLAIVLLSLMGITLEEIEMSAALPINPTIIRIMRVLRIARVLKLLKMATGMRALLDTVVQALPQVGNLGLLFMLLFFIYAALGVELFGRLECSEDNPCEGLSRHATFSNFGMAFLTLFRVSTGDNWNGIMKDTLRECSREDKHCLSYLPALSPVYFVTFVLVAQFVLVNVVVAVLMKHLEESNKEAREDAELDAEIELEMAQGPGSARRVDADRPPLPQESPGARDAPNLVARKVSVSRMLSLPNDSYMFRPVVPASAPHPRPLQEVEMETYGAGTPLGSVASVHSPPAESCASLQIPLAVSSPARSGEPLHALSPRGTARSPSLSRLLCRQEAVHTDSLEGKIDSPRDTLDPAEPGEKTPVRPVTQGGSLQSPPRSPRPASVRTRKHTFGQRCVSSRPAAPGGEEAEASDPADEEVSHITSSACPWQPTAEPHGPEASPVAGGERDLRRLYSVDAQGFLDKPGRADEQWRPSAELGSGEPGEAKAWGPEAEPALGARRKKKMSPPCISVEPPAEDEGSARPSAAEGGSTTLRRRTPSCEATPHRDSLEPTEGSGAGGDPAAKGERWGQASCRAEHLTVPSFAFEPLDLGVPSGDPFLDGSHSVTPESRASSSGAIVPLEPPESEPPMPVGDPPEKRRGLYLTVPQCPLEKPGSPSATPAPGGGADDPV
# Format: functional
Activity calls are given as the source filed them.
test readout: EC50

- Cc1cc(N2CCC(C(=O)Nc3ccc(F)cc3)CC2)nc(-c2ccccc2)n1: 4.26 µM (active)
- Cc1ccc(S(=O)(=O)Nc2ccc3nc(-c4cccn4C)[nH]c3c2)cc1: 5.6 µM (active)
- CCn1c(CNc2ccc(Cl)cc2)nnc1SCC(=O)OC1CCCCC1: 2.56 µM (active)
- COc1cccc(CNC(=O)CSCc2cnn(-c3ccccc3)c2-n2cccc2)c1: 3.66 µM (active)
- FC(F)(F)c1cc(C(F)(F)F)c2ccc(Oc3ccccc3)nc2n1: 4.65 µM (active)

----------
# assay target: 26S proteasome non-ATPase regulatory subunit 14 (Homo sapiens, UniProt O00487)
# Sequence (O00487 whole entry): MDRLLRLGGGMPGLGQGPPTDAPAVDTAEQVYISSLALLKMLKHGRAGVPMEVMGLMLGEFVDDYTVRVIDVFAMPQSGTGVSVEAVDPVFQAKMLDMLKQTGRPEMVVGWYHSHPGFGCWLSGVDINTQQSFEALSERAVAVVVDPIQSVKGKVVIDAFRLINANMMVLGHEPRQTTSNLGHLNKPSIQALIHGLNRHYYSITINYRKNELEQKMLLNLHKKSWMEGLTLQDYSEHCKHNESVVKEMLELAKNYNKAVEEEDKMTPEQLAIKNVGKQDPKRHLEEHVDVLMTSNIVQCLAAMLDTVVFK
# protocol text: inhibition of proteasome subunit RPN11 – biochemical, fluorescence polarization, uHTS hits, confirmation (AID 602368)
# Format: functional
Active and inactive are the calls of the source.
Here, each record is paired with measured IC50 data.
test readout: IC50

* CC(=O)Nc1ccc(/C(C)=N/NC(=O)c2ccc(COc3ccccc3Cl)o2)cc1 | 24.8 µM (active)
* CCN(CC)CCOC(=O)c1ccc(N/C=C(/C#N)c2nc(-c3ccc(OC)c(OC)c3)cs2)cc1 | 23.2 µM (active)
* O=C(O)CN1C(=O)/C(=C\c2ccc(OC(=O)c3ccco3)cc2)SC1=S | 25.4 µM (active)
* Cc1ccc(C(=O)CSc2cc(C)nc(=O)[nH]2)cc1 | 33.8 µM (active)

----------
Here, each record is paired with measured EC50 data.
# protocol text: Luminescence Cell-Based Dose Response HTS to Identify Activators of Luciferase Translation or Activity in H4 […] Cells. [Related pubchem assays: 1829 (Project Summary), 1814 (Primary HTS)]
# Assay type: functional
Activity calls are given as the source filed them.
test readout: EC50

* O=c1cc(Cl)[nH]c(=O)n1CCNc1ncc(C(F)(F)F)cc1Cl | 5.68 µM (active)
* Cc1ccc(C(=O)NCCC(=O)N2CCCC2)cc1 | 5.97 µM (active)
* CC(C)n1nnnc1SCC(=O)c1ccc2c(c1)OCCO2 | 0.624 µM (active)
* COc1cccc(-c2nc(-c3ccc4c(c3)NC(=O)CO4)cs2)c1 | 22.7 µM (active)
* CC(=O)Nc1cccc(-n2nnc(SCC(=O)c3ccccc3)n2)c1 | 19.8 µM (active)
* Cc1ccc2nc3ccc(N4CCCC4)nn3c(=O)c2c1 | 0.558 µM (active)
* Cc1ccc(-c2cn(-c3ccccc3)c(SCC(=O)NC3CCS(=O)(=O)C3)n2)cc1C (configuration not stated) | 8.74 µM (active)

----------
For reference, AC50 measured on Cytochrome P450 3A4 (Homo sapiens):
test readout: AC50

• O=c1c(-c2cccc(F)c2)nc2cncnc2n1Cc1ccccc1 = 10 µM (inconclusive)
• CC(C)(C)NC(=O)COC(=O)c1cncc(Br)c1 = 15.8 µM (inconclusive)
• COCCNc1nc(-c2ccccc2CN(C)C)nc2ccccc12 = 15.8 µM (inconclusive)
• CN1CCN(c2nc(-c3cccnc3)nc3ccccc23)CC1 = 25.1 µM (inconclusive)
• COc1ccc(Oc2ncc3nc(-c4ccc(Cl)cc4)c(=O)n(C)c3n2)cc1 = 5.01 µM (inconclusive)
• Cn1cnc2c(NCc3ccccc3)nc(NCCO)nc21 [OLOMOUCINE] = 15.8 µM (inconclusive)
• N#CCCn1c(=O)c(CCc2ccccc2)nc2cnc(Nc3ccccc3)nc21 = 1 µM (inconclusive)
• CC(=O)[C@]1(O)CC[C@@H]2[C@H]3C[C@@H](C)C4=CC(=O)CC[C@@]4(C)[C@H]3[C@@H](O)C[C@]21C = 3.98 µM (inconclusive)
• CO/C(O)=C1/C(C)=Nc2ncnn2C1c1cccnc1 (stereo unspecified) = 39.8 µM (inconclusive)
• CCCN1C(=O)C(NC(C)=O)c2cc(OC)ccc21 (stereo unspecified) = 22.4 µM (inconclusive)
• O=C(c1ccc2c(c1)N(Cc1ccc(F)cc1)C(=O)CS2)N1CCOCC1 = 25.1 µM (inconclusive)

----------
# assay target: Sentrin-specific protease 8 (Homo sapiens, UniProt Q96LD8);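 further: luminescence read-out of SENP8 inhibition, dose-response confirmation following an ultra-high-throughput screen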
# Sequence (Q96LD8 whole entry): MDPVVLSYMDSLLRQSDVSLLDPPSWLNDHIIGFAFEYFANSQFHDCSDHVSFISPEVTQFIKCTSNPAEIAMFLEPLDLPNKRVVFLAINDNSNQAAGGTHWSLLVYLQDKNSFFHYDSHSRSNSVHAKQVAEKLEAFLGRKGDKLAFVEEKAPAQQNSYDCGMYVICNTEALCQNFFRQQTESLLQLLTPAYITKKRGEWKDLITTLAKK
# Type: functional
Activity calls are given as the source filed them.
Here, each record is paired with measured IC50 data.
test readout: IC50

* O=C1N=C(NS(=O)(=O)Cc2ccccc2)S/C1=C1\C(=O)Nc2ccccc21 | 24.5 µM (active)
* Oc1ccc(N=Nc2c(O)ccc3ccccc23)cc1 | 8.8 µM (active)
* Cc1ccc(/C=C/c2nc(O)c3ccccc3n2)cc1 | 1.5 µM (active)
* Clc1ccc2nc(-c3ccc(Br)s3)cn2c1 | 16.5 µM (active)
* O=C(Nc1ccc2ccccc2c1)c1cccc(F)c1 | > 100 µM (inactive)
